Taken from patent US20080319065A1.

List of melting point values.
observable: melting point

>  <molecule>
CCCCCCCCCCCCCCC(=O)C(=O)NC(C=CC(=O)OC)CCCC (stereo not drawn)

>  <observable>
melting point

>  <measured.result>
48 to 50 °C

$$$$
>  <molecule>
CCCCCCCCCCCCCCC(=O)C(=O)NCCCC(=O)OC(C)(C)C

>  <observable>
melting point

>  <measured.result>
61 to 62 °C

$$$$
>  <molecule>
CCCCCCCCCCCCCCC(=O)C(=O)NCCCC(=O)OCC

>  <observable>
melting point

>  <measured.result>
63 to 64 °C

$$$$
>  <molecule>
O=C(O)CCCNC(=O)C(=O)CCCc1ccccc1

>  <observable>
melting point

>  <measured.result>
65 to 67 °C

$$$$
>  <molecule>
O=C(O)CCCNC(=O)C(=O)CCCCc1ccccc1

>  <observable>
melting point

>  <measured.result>
60 to 62 °C

$$$$
>  <molecule>
CCCCCCCCCCCCCCC(=O)C(=O)NC(C=CC(=O)O)CCCC (stereo not drawn)

>  <observable>
melting point

>  <measured.result>
65 to 67 °C

$$$$
>  <molecule>
COC(=O)CCCNC(=O)C(=O)CCCCc1ccccc1

>  <observable>
melting point

>  <measured.result>
52 to 54 °C

$$$$
>  <molecule>
COC(=O)CCCNC(=O)C(=O)CCCc1ccccc1

>  <observable>
melting point

>  <measured.result>
30 to 31 °C

$$$$
>  <molecule>
CCCCCCCCC=CCCCCCCCC(=O)C(=O)NCCCC(=O)O

>  <observable>
melting point

>  <measured.result>
57 to 59 °C

$$$$

----------
target.under.test: Group VIA iPLA2 (GVIA PLA2) (Homo sapiens, UniProt O60733)
Sequence (O60733 whole entry): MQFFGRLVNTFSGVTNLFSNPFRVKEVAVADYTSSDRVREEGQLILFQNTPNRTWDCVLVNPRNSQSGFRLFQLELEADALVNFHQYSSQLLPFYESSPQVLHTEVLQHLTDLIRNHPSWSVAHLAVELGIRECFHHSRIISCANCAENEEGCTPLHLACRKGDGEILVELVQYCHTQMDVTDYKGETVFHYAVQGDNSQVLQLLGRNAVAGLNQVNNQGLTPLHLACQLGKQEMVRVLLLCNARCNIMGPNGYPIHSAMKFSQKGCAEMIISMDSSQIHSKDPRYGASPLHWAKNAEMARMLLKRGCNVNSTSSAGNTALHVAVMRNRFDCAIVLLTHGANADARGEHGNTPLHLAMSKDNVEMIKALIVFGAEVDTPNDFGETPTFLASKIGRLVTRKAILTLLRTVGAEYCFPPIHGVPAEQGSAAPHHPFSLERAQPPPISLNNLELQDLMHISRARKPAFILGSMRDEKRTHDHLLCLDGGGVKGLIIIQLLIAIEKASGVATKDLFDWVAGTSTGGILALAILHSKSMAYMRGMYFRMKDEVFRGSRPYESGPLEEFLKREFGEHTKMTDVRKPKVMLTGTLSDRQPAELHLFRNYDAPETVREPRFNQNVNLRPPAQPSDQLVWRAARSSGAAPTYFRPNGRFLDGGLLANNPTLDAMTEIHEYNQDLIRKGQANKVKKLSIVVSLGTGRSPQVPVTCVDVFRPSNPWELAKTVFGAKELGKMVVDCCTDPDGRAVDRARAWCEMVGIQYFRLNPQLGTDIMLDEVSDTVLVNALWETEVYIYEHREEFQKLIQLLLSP
measurement.notes: In vitro Group VIA iPLA2 mixed micelle assay
Format: biochemical
recorded.conditions: at 0.091 mole fraction; read-out: iPLA2 inh, percent inhibition
inhibition at 0.091 mole fraction values by entry
observable: inhibition at 0.091 mole fraction (%)

>  <compound>
CCCC[C@@H](COCC(=O)OC(C)(C)C)NC(=O)C(=O)CC [AX122]

>  <observable>
inhibition at 0.091 mole fraction

>  <measured.result>
81

$$$$
>  <compound>
CCC[C@@H](COCC(=O)OCC)NC(=O)C(=O)CC [AX128]

>  <observable>
inhibition at 0.091 mole fraction

>  <measured.result>
92.8

$$$$
>  <compound>
CCCC[C@H](NC(=O)C(=O)CC)C(=O)NCC(=O)OC(C)(C)C [AX121]

>  <observable>
inhibition at 0.091 mole fraction

>  <measured.result>
89.6

$$$$
>  <compound>
CCOC(=O)CNC(=O)C(=O)CC [AX114]

>  <observable>
inhibition at 0.091 mole fraction

>  <measured.result>
61.6

$$$$
>  <compound>
C=CCOC(=O)CCCNC(=O)C(=O)CC [AX126]

>  <observable>
inhibition at 0.091 mole fraction

>  <measured.result>
63.2

$$$$
>  <compound>
CCC(=O)C(=O)NCC(=O)OC(C)(C)C [AX111]

>  <observable>
inhibition at 0.091 mole fraction

>  <measured.result>
53.1

$$$$
>  <compound>
CCC[C@H](NC(=O)C(=O)CC)C(=O)NCC(=O)OCC [AX127]

>  <observable>
inhibition at 0.091 mole fraction

>  <measured.result>
93.9

$$$$
>  <compound>
CC/C=C\CC(=O)C(=O)NCCCC(=O)OCC [AX110]

>  <observable>
inhibition at 0.091 mole fraction

>  <measured.result>
52.8

$$$$
>  <compound>
CCOC(=O)CCNC(=O)C(=O)CC [AX104]

>  <observable>
inhibition at 0.091 mole fraction

>  <measured.result>
50.6

$$$$
>  <compound>
CCC(=O)C(=O)NCCC(=O)OC(C)(C)C [AX113]

>  <observable>
inhibition at 0.091 mole fraction

>  <measured.result>
54

$$$$
>  <compound>
CCOC(=O)CCCCNC(=O)C(=O)CC [AX102]

>  <observable>
inhibition at 0.091 mole fraction

>  <measured.result>
35.3

$$$$
>  <compound>
CCOC(=O)c1ccc(NC(=O)C(=O)CC)cc1 [AX091]

>  <observable>
inhibition at 0.091 mole fraction

>  <measured.result>
14.3

$$$$
>  <compound>
CCOCCCCNC(=O)C(=O)CC [AX081]

>  <observable>
inhibition at 0.091 mole fraction

>  <measured.result>
50.9

$$$$
>  <compound>
CCC[C@@H](/C=C/C(=O)OCC)NC(=O)C(=O)CC [AX093]

>  <observable>
inhibition at 0.091 mole fraction

>  <measured.result>
66.5

$$$$
>  <compound>
CCC(=O)C(=O)NCCCC(=O)OCc1ccccc1 [AX116]

>  <observable>
inhibition at 0.091 mole fraction

>  <measured.result>
10.7

$$$$
>  <compound>
CCOC(=O)CCCNC(=O)C(=O)CCc1ccc(OCC)cc1 [AX090]

>  <observable>
inhibition at 0.091 mole fraction

>  <measured.result>
67.3

$$$$
>  <compound>
CCC(=O)C(=O)NCCCCC(=O)OC(C)(C)C [AX105]

>  <observable>
inhibition at 0.091 mole fraction

>  <measured.result>
61.7

$$$$

----------
target.under.test: GV sPLA2 (Homo sapiens)
Sequence (P39877 21-138): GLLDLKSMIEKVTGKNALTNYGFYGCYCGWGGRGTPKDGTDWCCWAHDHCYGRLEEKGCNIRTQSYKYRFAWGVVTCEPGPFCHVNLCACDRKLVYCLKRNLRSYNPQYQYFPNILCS
measurement.notes: GV sPLA2 activity assay
Assay type: biochemical
recorded.conditions: read-out: sPLA2 inh., percent inhibition
observable: inhibition at 0.091 mole fraction (%)

>  <compound>
CCCCC(=O)CCCNC(=O)C(=O)CC [AX082]

>  <unit.abbreviation>
%

>  <measured.result>
7.4

$$$$
>  <compound>
CCC(=O)C(=O)NCCC(=O)OC(C)(C)C [AX113]

>  <unit.abbreviation>
%

>  <measured.result>
100

$$$$
>  <compound>
CCOC(=O)CCCCNC(=O)C(=O)CC [AX102]

>  <unit.abbreviation>
%

>  <measured.result>
47.1

$$$$
>  <compound>
CCC[C@H](NC(=O)C(=O)CC)C(=O)NCC(=O)OCC [AX127]

>  <unit.abbreviation>
%

>  <measured.result>
63.1

$$$$
>  <compound>
CCC(=O)C(=O)NCCCCC(=O)OC(C)(C)C [AX105]

>  <unit.abbreviation>
%

>  <measured.result>
96.3

$$$$
>  <compound>
CCOCCCCNC(=O)C(=O)CC [AX081]

>  <unit.abbreviation>
%

>  <measured.result>
76.5

$$$$

----------
# efficacy against sPLA2 annotations
target.under.test: GV sPLA2 (Homo sapiens, UniProt P39877)
Sequence (P39877 21-138): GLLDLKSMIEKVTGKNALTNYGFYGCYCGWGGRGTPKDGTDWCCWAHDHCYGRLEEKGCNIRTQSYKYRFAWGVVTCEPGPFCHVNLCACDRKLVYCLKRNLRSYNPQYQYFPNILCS
measurement.notes: GV sPLA2 activity assay
Assay type: biochemical
recorded.conditions: at 0.091 mole fraction

>  <molecule>
CCCCCCCCCCCCCCC(=O)C(=O)NCCCC(=O)OCC

>  <efficacy against sPLA2>
61.5%

$$$$
>  <molecule>
CCCCCCCCCCCCCCC(=O)C(=O)NCCCC(=O)OC(C)(C)C

>  <efficacy against sPLA2>
76.7%

$$$$
>  <molecule>
CCCCCCCCCCCCCCC(=O)C(=O)NC(C=CC(=O)OC)CCCC (centres unmarked)

>  <efficacy against sPLA2>
75.3%

$$$$
>  <molecule>
NC(=O)C(=O)CCCCc1ccccc1

>  <efficacy against sPLA2>
45.3%

$$$$
